# Tested on: murine P388 lymphocytic leukemia cells
# test-description: Increases in life span of mice implanted with murine P388 lymphocytic leukemia cells
# Assay type: in vivo, SLC: BDF1 mice
# run-conditions: Mus musculus, P388, ip, 720 h, ip, 3.13 mg/kg, days 1 and 5, in solution; read-out: ILS (%) (in solution)
measured-attribute: ILS at 3.13 mg/kg (%)
Note: unit % is implicit; provide only the numeric part.

Give reported ILS at 3.13 mg/kg value for CNC1(C)CCN(c2ccc3c(=O)c(C(=O)O)cn(-c4nccs4)c3n2)C1 (stereo not shown)
63

Input CN[C@@H]1CN(c2ccc3c(=O)c(C(=O)O)cn(-c4nccs4)c3n2)C[C@H]1C (relative stereo) , output reported ILS at 3.13 mg/kg.
113

Name the recorded ILS at 3.13 mg/kg of the item Cl.NC1CCN(c2ccc3c(=O)c(C(=O)O)cn(-c4nccs4)c3n2)C1 (stereo not shown) [Compound 3, hydrochloride] in your answer.
75

Determine its reported ILS at 3.13 mg/kg: CC1(N)CCN(c2ccc3c(=O)c(C(=O)O)cn(-c4nccs4)c3n2)C1 (stereo not shown)
63

* * *

# Tested on: A427 human lung cancer
# test-description: In vitro anti-tumor activity against A-427 human lung cancer (MTT)
# Assay type: cell-based
# run-conditions: A-427, 72 h, MTT, read-out: IC50
Can you tell me IC50 for the items I'm about to list?

Dear colleague, please send me the reported IC50 for CO[C@@H]1CN(c2ccc3c(=O)c(C(=O)O)cn(-c4nccs4)c3n2)C[C@H]1N (relative stereo) when you can.
0.169 µg/mL

Look up IC50 of Cl.NC1CCN(c2ccc3c(=O)c(C(=O)O)cn(-c4nc(F)cs4)c3n2)C1 (stereo not shown) and report it.
0.0625 µg/mL

Could you please provide reported IC50 for C[C@@H]1CN(c2ccc3c(=O)c(C(=O)O)cn(-c4nccs4)c3n2)C[C@@]1(C)N (relative stereo) ? Thanks!
0.146 µg/mL

Complete the entry with IC50 for CN[C@@H]1CN(c2ccc3c(=O)c(C(=O)O)cn(-c4nc(F)cs4)c3n2)C[C@H]1OC (relative stereo)
0.145 µg/mL

* * *

# Tested on: murine P388 lymphocytic leukemia cells
# test-description: In vitro anti-tumor activity against murine P388 lymphocytic leukemia cells (MTT, 72 h)
# Format: cell-based
# run-conditions: Mus musculus; murine P388 cells, 72 h, MTT; read-out: IC50 (50% proliferation inhibitory concentration)
Kindly state IC50 for each of the entries shown.
Please respond with the number in µg/mL and leave the unit unwritten.

Recall the reported IC50 of NC1CCN(c2ncc3c(=O)c(C(=O)O)cn(-c4nccs4)c3n2)C1 (stereo not shown) when tested on murine P388 lymphocytic leukemia cells.
0.0466

Look up and report IC50, with murine P388 lymphocytic leukemia cells as system, for Cl.Nc1cc(N2CCC(N)C2)nc2c1c(=O)c(C(=O)O)cn2-c1nccs1 (stereo not shown)
0.00809

// fetch IC50; item: CNC1(C)CCN(c2ccc3c(=O)c(C(=O)O)cn(-c4nccs4)c3n2)C1 (stereo not shown) ; system: murine P388 lymphocytic leukemia cells
0.0175

Provide measured IC50 on murine P388 lymphocytic leukemia cells for C[C@@H]1CN(c2ccc3c(=O)c(C(=O)O)cn(-c4nccs4)c3n2)C[C@H]1N (relative stereo) please.
0.00955
